Below, each entry is listed alongside its reported pIC50.
Target Of Assay: Prostaglandin G/H synthase 2 (Ovis aries)
Sequence (P79208 whole entry): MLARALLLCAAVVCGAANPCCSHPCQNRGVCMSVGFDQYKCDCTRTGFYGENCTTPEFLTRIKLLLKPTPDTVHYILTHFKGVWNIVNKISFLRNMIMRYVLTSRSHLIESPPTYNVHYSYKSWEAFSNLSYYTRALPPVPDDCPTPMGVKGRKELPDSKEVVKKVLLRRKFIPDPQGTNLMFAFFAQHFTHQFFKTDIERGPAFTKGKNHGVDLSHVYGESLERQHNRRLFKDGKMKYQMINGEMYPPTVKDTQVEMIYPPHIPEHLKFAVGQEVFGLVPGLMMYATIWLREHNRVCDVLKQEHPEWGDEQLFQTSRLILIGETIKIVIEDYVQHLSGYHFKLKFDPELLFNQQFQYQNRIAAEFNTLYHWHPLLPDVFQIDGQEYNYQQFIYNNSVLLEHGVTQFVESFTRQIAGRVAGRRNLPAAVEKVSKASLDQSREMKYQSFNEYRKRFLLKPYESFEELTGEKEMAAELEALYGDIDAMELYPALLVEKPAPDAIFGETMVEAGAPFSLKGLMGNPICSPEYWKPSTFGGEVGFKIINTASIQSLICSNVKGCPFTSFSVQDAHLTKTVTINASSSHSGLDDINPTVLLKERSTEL
pIC50: −log10 of the molar value.

Compound	pIC50
Cc1ccc(-c2cc(-c3ccc([N+](=O)[O-])cc3)[nH]c(=O)c2C#N)cc1	5.54
CS(=O)(=O)Nc1ccc(-c2cc(-c3ccc(Cl)cc3)c(C#N)c(=O)[nH]2)cc1	5.47
N#Cc1c(-c2ccccc2)cc(-c2ccc([N+](=O)[O-])cc2)[nH]c1=O	5.42
CS(=O)(=O)Nc1ccc(C2=NN(c3ccc(S(N)(=O)=O)cc3)C(c3ccc(Cl)cc3)C2)cc1 (stereo not drawn)	5.62
CS(=O)(=O)Nc1ccc(C2=NN(c3ccc(S(N)(=O)=O)cc3)C(c3ccc(F)cc3)C2)cc1 (stereo not drawn)	5.41
N#Cc1c(-c2ccc(F)cc2)cc(-c2ccc([N+](=O)[O-])cc2)[nH]c1=O	5.34
CS(=O)(=O)Nc1ccc(-c2cc(-c3ccccc3)c(C#N)c(=O)[nH]2)cc1	5.80
CC(C)Cc1ccc(-c2cc(-c3ccc(F)cc3)c(C#N)c(=O)[nH]2)cc1	6.03
